Molecular target: ATP-binding cassette transporter A1 (ABCA1) (UniProt P41233 1-2261, limits assumed)
Sequence (P41233 whole entry): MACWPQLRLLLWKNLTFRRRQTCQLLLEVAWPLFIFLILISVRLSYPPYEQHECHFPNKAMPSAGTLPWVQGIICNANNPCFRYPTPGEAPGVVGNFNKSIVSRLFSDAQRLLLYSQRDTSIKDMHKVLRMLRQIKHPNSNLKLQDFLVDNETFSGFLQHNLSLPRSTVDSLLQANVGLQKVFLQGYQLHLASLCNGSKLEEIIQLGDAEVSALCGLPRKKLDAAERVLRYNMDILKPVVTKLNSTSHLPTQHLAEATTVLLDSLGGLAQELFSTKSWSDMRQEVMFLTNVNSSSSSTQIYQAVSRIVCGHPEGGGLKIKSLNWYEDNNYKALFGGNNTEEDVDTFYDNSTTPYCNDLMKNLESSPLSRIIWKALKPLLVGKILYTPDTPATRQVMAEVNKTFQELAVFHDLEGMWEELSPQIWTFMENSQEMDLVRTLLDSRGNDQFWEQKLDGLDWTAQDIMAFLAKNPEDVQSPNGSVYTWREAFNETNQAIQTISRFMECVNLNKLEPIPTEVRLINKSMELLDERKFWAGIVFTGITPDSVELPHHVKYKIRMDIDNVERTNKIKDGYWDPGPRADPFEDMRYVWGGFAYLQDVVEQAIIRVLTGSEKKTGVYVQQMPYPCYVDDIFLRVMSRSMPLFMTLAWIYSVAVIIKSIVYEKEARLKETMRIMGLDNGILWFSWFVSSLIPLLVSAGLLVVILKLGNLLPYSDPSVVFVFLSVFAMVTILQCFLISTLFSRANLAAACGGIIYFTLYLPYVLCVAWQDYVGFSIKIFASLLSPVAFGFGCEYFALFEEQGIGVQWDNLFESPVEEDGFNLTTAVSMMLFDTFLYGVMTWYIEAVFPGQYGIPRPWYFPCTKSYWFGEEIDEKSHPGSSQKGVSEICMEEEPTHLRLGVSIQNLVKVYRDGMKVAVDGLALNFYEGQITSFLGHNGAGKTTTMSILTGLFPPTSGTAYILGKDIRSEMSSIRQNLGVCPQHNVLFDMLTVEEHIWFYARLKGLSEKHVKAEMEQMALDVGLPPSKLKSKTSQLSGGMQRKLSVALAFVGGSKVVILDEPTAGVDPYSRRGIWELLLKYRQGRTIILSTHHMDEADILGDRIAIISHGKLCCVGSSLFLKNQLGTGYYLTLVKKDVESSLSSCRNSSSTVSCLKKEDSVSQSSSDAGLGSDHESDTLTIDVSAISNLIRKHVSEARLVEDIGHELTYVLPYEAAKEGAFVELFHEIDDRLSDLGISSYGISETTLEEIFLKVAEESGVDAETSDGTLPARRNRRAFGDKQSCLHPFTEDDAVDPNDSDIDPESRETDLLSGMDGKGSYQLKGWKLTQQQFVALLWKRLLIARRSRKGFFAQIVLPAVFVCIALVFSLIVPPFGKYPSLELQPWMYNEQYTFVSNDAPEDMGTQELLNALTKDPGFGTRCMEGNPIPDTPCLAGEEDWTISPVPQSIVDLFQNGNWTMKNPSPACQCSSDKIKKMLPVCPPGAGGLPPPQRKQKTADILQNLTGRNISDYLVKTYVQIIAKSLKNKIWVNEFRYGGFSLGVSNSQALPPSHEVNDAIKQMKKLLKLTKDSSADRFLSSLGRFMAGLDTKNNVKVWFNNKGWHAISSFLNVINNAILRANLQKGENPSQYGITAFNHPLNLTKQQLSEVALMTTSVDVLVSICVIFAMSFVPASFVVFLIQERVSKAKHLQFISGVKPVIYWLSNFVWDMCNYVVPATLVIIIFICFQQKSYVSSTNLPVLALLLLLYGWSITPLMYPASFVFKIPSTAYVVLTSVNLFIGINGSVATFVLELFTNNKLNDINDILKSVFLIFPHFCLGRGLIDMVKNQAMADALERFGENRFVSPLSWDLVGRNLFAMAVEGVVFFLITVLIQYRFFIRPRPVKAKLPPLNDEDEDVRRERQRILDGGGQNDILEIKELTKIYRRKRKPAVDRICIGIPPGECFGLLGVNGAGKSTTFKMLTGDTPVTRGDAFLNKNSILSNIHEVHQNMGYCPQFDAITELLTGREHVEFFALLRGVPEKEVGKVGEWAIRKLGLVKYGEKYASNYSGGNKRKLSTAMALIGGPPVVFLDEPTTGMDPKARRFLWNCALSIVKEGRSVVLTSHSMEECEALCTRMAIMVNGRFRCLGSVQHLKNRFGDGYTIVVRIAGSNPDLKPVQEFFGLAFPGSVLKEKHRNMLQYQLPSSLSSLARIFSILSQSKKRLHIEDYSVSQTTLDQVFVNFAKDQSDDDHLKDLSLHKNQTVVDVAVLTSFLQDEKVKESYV
Assay: cell-based or functional assay
REPORTED METRIC: % cholesterol efflux/4 hours at 10 µg/ml (%)

A selection of reference data follows.
> print(dat)
                            binder  value.observed
1  ELREKLEAWRELFEEFFARFKS [N356-2]             5.7
2    ELRAKLEAWFEAFAEFFARF [N356-7]            5.49

P: ELREKLEAWFEAFEEFFARFKS [N356-1]
Q: ELREKLEAWFELFAEFFARF [N356-6]
Given the listed items, does P or Q have the lesser reported % cholesterol efflux/4 hours at 10 µg/ml? Identify your pick by its label.
Q
(Q: 3.78%, P: 5.61%)
